# Test system: Differentiated U937 cells
# assayExplanation: MTT assay: cell viability on exposure to test compounds
# Assay type: cell-based, human
# testSettings: percentage loss of cell viability vs vehicle; 1 μg/mL, 4 hr, 5% FCS
measure: MTT Assay (Viability) 4 h d-U937 (%)
I only need the number, in %, no unit after it.

Given "CC(C)(C)c1cc(NC(=O)Nc2ccc(Oc3ccnc(NC(=O)NC4CC4)c3)c3ccccc23)n(-c2ccc(S(C)(=O)=O)cc2)n1" , state its recorded MTT Assay (Viability) 4 h d-U937.
3.5

Given "CSc1ccc(-n2nc(C(C)(C)C)cc2NC(=O)Nc2ccc(Oc3ccnc(NC(=O)N4CCCC4)c3)c3ccccc23)cc1" , state its recorded MTT Assay (Viability) 4 h d-U937.
−0.4

Given "CN(C)C(=O)Nc1cc(Oc2ccc(NC(=O)Nc3cc(C(C)(C)C)nn3-c3ccc(O)cc3)c3ccccc23)ccn1" , state its recorded MTT Assay (Viability) 4 h d-U937.
−25.8

Given "COCC(=O)Nc1cc(Oc2ccc(NC(=O)Nc3cc(C(F)(F)F)nn3-c3ccc(C)cc3)c3ccccc23)ccn1" , state its recorded MTT Assay (Viability) 4 h d-U937.
0.8

Given "COc1ccc(-n2nc(C(C)(C)C)cc2NC(=O)Nc2ccc(Oc3ccnc(NC(=O)NC4CC4)c3)c3ccccc23)cc1" , state its recorded MTT Assay (Viability) 4 h d-U937.
−10.7

Given "COCC(=O)Nc1cc(Oc2ccc(NC(=O)Nc3cc(C(C)(C)C)nn3-c3ccc(OC)c(OC)c3)c3ccccc23)ccn1" , state its recorded MTT Assay (Viability) 4 h d-U937.
−9.3
